# credit: paper PMC10873626

Details: mouse, hepatocytes

- Compound: "CO[C@H]1/C=C/O[C@@]2(C)Oc3c(C)c(O)c4c(c3C2=O)C2=NC3(CCN(CC(C)C)CC3)NC2=C(NC(=O)/C(C)=C\\C=C\\[C@H](C)[C@H](O)[C@@H](C)[C@@H](O)[C@@H](C)[C@H](OC(C)=O)[C@@H]1C)C4=O [Rifabutin]"
  Unit String: "mL/min/g liver"
  CLint, WT: 0.5
- Compound: "CC[C@H]1OC(=O)[C@H](C)[C@@H](O[C@H]2C[C@@](C)(OC)[C@@H](O)[C@H](C)O2)[C@H](C)[C@@H](O[C@@H]2O[C@H](C)C[C@H](N(C)C)[C@H]2O)[C@](C)(O)C[C@@H](C)C(=O)[C@H](C)[C@@H](O)[C@]1(C)O [Erythromycin]"
  Unit String: "mL/min/g liver"
  CLint, WT: 1.3
- Compound: "CCOc1ccc2ccc(=O)oc2c1 [7-ethoxycoumarin]"
  Unit String: "mL/min/g liver"
  CLint, WT: 39
- Compound: "OC(c1cc(C(F)(F)F)nc2c(C(F)(F)F)cccc12)C1CCCCN1 (stereo not shown) [Mefloquine]"
  Unit String: "mL/min/g liver"
  CLint, WT: 0.5
